Reference source for all entries: patent US20240279281A1

tgt: T1, interleukin-23 receptor (IL-23R) (UniProt Q5VWK5 24-629, limits assumed)
T1 sequence (looked up): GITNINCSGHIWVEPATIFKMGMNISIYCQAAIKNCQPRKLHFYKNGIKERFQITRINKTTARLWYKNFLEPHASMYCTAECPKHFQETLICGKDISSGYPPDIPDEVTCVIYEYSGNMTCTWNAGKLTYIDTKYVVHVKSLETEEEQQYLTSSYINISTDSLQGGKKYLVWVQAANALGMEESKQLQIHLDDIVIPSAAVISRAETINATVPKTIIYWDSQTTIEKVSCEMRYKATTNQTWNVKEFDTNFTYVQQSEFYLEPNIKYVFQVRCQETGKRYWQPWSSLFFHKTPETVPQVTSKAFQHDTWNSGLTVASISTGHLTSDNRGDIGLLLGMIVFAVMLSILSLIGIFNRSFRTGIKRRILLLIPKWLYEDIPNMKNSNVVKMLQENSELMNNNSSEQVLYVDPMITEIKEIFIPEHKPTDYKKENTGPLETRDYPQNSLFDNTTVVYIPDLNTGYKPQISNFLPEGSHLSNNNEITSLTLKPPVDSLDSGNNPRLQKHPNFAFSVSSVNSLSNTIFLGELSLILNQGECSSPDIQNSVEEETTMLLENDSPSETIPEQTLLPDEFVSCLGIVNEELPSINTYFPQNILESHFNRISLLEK
procedure-details: cell-based or functional assay
Starred links: 1 amine or outer side, 2 acyl side, 3 side chain; linkers in the order of their positions; H or OH if unused. Positions of bridges follow the written chain, without caps; N, C: chain ends. Non-standard residues stand in square brackets, D forms with d. 2Nal6(Ph4(NMorph)) = 2-amino-3-(6-(4-morpholinophenyl)naphthalen-2-yl)propanoic acid, O=C([C@H](Cc1ccc2cc(-c3ccc(N4CCOCC4)cc3)ccc2c1)N[*:1])[*:2]; 2Nal(6-OH) = N[C@@H](Cc1ccc2cc(O)ccc2c1)C(=O)O; Trp(7-Me) = Cc1cccc2c(C[C@H](N)C(=O)O)c[nH]c12; AEF = NCCOc1ccc(C[C@H](N)C(=O)O)cc1; 3Pal = N[C@@H](Cc1cccnc1)C(=O)O; Pen = CC(C)(S)[C@H](N)C(=O)O; Thp = NC1(C(=O)O)CCOCC1; Sar = CNCC(=O)O
IL23R Reporter Assay IC50 values for the binders below.

These recorded examples may help you get a feel for the data.
Ac-X[Pen]NT[Trp(7-Me)]K(Ac)[Pen][AEF][2Nal(6-OH)][Thp]EN[3Pal][Sar]-NH2 (disulfide 2-7 (inferred); not fully specified (residue 1); printed as MeCO-k(d)-Pen(3)-N-T-7MeW-K(Ac)-Pen(3)-AEF-6OH2Nal-THP-E-N-3Pya-Sar-CONH2) [SEQ ID NO: 349] = < 10 nM
Ac-[dR][Pen]NT[Trp(7-Me)]K(Ac)[Pen][AEF][2Nal6(Ph4(NMorph))][Thp]EN[Thp]-NH2 (disulfide 2-7 (inferred)) [SEQ ID NO: 432] = ≥ 100 nM
XXNTXXXXXXENXX (MeCO-k(Me)3-Pen(3)-N-T-7(3NAcPh)W-K(Ac)-Pen(3)-AEF(G)-6OH2Nal-THP-E-N-5MePyridinAla-Sar-CONH2) [SEQ ID NO: 11] = < 10 nM
Ac-[dR][Pen]NT[Trp(7-Me)]K(Ac)[Pen][AEF][2Nal(6-OH)][Thp]EN[3Pal][Sar]-NH2 (disulfide 2-7 (inferred)) [SEQ ID NO: 442] = < 10 nM

Continue with the next binder.
Query string: GET /values?readout=IL23R Reporter Assay IC50&item= Ac-[Pen]NT[Trp(7-Me)]K(Ac)[Pen][AEF][2Nal(6-OH)][Thp]EN[3Pal][Sar]-NH2 (disulfide 1-6 (inferred)) [SEQ ID NO: 428]
Result string: < 10 nM
